target: human GCC (guanylyl cyclase C, GUCY2C) on cells (human) (UniProt P25092); assay: flow cytometry, B cell clone supernatant on Dubca-human GCC.Luc cells
Sequence (P25092 24-1073): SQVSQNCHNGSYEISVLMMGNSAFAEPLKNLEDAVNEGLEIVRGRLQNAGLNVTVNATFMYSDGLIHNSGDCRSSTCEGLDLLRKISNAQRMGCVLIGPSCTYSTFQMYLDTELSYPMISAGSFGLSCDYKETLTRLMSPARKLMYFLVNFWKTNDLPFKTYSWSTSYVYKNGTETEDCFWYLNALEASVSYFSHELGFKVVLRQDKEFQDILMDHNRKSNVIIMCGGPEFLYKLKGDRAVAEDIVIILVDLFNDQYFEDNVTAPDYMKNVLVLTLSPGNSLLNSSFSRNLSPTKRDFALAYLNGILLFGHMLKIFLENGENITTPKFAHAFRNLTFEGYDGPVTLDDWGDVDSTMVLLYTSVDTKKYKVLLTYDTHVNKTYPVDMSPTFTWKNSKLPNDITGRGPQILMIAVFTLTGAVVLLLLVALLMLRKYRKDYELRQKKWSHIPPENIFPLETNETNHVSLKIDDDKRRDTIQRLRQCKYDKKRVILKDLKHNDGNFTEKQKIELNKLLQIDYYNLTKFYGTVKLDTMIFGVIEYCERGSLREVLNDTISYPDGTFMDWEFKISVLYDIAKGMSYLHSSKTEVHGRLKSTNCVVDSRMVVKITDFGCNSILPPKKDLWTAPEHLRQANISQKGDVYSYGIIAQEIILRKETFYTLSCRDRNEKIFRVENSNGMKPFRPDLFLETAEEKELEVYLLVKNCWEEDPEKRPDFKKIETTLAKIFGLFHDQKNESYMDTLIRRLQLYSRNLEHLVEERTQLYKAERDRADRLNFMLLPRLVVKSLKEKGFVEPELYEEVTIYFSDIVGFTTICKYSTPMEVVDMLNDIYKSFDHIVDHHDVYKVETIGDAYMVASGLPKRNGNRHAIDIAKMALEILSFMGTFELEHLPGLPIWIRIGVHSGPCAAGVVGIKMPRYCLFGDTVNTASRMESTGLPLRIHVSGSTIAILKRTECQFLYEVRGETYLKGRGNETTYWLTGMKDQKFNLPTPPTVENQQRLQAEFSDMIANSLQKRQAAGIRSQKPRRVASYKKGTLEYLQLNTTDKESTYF
Kindly supply the reported percent of cells bound (flow cytometry) values for the records listed here.
Answers are plain numbers, in %.

Known results for binders:
binder	reported_measurement
21E1 (anti-GCC rabbit monoclonal antibody, B cell clone supernatant) (antibody, V domains shown) VH: QSLEESGGRLVTPGTPLTLTCTVSGIDLSSYDMTWVRQAPGKGLEWIGSIGDDGNTYYATWAKGRFTISKTSTTVHLKMTSLTTEDTATYFCARGWSFCKSWGQGTLVTVSS VL: AQVLTQTASPVSAAVGGTVTISCQSSQSVANNNLAWYQQKPGQPPSPLIYKASTLESGVPSRFSGSGSGTQFALTISGVQCDDAATYYCQGAYRSGIMAFGGGTEVVVR	95.4
48D5 (anti-GCC rabbit monoclonal antibody, B cell clone supernatant) (antibody, V domains shown) VH: QSLEESGGRLVKPDETLTITCTVSGIDLSSNAISWVRQAPGEGLEYIGYIGTGGKSFYATWTKGRFTISKTSTTVDLKMTSLTNEDTAMYFCATGNTYLDLWGQGTLVTVSS VL: AQVLTQTPSSVSAAVGGTVTINCQSSQSVYGADYLAWYQQKPGQPPKLLIYRASNLASGVPSRFRGSGSGTQFTLTISEVQCDDAATYYCQGTYISSDWLNPFGGGTEVVVK	65.9
25E2 (anti-GCC rabbit monoclonal antibody, B cell clone supernatant) (antibody, V domains shown) VH: QSVEESGGRLVTPGTPLTLTCTVSGIDLNKHAMGWVRQAPTKGLEWIGTIYVSTNTAYASWAKGRFTISKTSSTTVDLKMTSLTTEDTATYFCARGGGSSYYTGELYFNLWGQGTLVTVSS VL: AYDMTQTPASVEVAVGGTVSIKCQVSQSIGSWLAWYQQKPGQPPKLLIYSASTLASGVSSRFKGSGSGTEFTLTISDLACVDAATYYCQSYSSASTTAFGGGTEVVVR	95.1

Please find the next binder below.
Returns the measured percent of cells bound (flow cytometry) for the input binder. Input: 22G5 (anti-GCC rabbit monoclonal antibody, B cell clone supernatant) (antibody, V domains shown) VH: QSVEESGGRLVTPGTPLTLTCTVSGIDLSSYAMTWVRQAPGEGLEWIGTINTISTAYYANWAKGRFTISKTSTTVDLKIASPTTEDTATYFCARDHGYYDVWGQGTLVTVSS VL: AQVLTQTPSSVSAAVGGTVTINCQASQSVYKNNYLSWYQQKPGQPPRLLIYDASTLASGVPSRFKGSGSGTQFTLTISGVQCDDAATYYCLGEFSCSSGDCAAFGGGTEVVVK
99.9
